Biological target: T1, TNFR1 (Homo sapiens, UniProt P19438)
T1 chain: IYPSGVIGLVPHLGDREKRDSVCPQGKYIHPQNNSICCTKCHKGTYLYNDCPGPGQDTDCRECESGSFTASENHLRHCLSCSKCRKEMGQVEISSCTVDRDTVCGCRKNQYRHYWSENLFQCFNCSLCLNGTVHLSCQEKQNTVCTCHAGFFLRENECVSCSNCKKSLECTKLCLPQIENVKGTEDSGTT
Assay: yeast display SC50
measured.quantity: apparent Kd (screen) (nM)
Give the number; nM is assumed, so skip it.

R97P (designed binder) MTLQELLREEALRRAEAEAFRYALELLAEKFPEQKEYLLDLAEEIESQIRSLSGVDVEDVRKFLDKEWAWVKELLAEHPAELAEVEAARAARLAELPAEVEAKVAA : 0.869

Here's the next entry for you.
Supply recorded apparent Kd (screen) for L52W (designed binder) MTLQELLREEALRRAEAEAFRYALELLAEKFPEQKEYLLDLAEEIESQIRSWSGVDVEDVRKFLDKEWAWVKELLAEHPAELAEVEAARAARLAELRAEVEAKVAA here.
0.405

// data source = paper PMC12416549
